- Tested on: Plasmodium berghei
- Assay Name: Screen against P. berghei liver stage (PbLuc), transformed with Luciferase, at 10uM
- Type: functional, HepG2
- Stated Conditions: tested at 10 uM
Screen size: about 69,000 compounds; about 8,600 (12%) showed an effect of 50% or more. The list comes from a sample in which strong results are over-represented; it also holds close analogues and randomly drawn compounds.
Assign INHIBITION to each entry below.
The response must be a number in % with no trailing unit.

Given item Cc1cnc(C(=O)N2CCC3(CCN3Cc3ccc(F)cc3)C2)cn1 (centres undefined) , the value recorded as its INHIBITION is 53.9

Entry COc1c(C(=O)NCc2cccnc2)nnn1Cc1ccccc1 ; INHIBITION = 2.69

get_value(item= CCc1nc(N)nc(NCCC(=O)N2CCCC2)c1C , readout=INHIBITION) returns 62.8

The value of INHIBITION measured for the molecule O=C1CC2(CCCCN2C(=O)c2ccncc2)CN1CC1CC1 (centres undefined) turned out to be 23.5

Looking up Cc1ccc(C(=O)N2CCC3(CCCN(c4ncc(F)cn4)C3)C2)cn1 (centres undefined) , I found its INHIBITION recorded as 36.7

Please fill in: INHIBITION reported for Cc1ccc(CSc2nc(N)cc(NCCC(=O)N3CCCC3)n2)cc1 = 36.6

The molecule Cc1ccc(CN2CCn3c(CN(C)C(C)C)cnc3C2)s1 showed INHIBITION equal to 7.53

The molecule listed as Nc1cnc(-c2ccc(F)cc2Cl)cn1 has a reported INHIBITION of 38.2

Entry CCOc1ccc(S(=O)(=O)C(C)C(=O)Nc2cc(C)no2)cc1 (centres undefined) — recorded INHIBITION = -11.9

Briefly, INHIBITION measured for Cc1ccc2nc(CNc3ccccc3C(=O)NC3CC3)cn2c1 : 7.38

The measured INHIBITION associated with Cc1ccc(C(=O)N2CCC3(CCN3Cc3ccc(F)cc3)C2)cn1 (centres undefined) reads 62.9

Please fill in: INHIBITION reported for COCCN1CCC12CCN(C(=O)c1ccc3[nH]ccc3c1)C2 (centres undefined) = 27.6

Measured INHIBITION, Oc1cccc(CN2C[C@@H]3CC[C@H]2CN(Cc2ccc(F)cc2)C3)c1 : 39.5

The molecule identified as O=C(c1ccsc1)N1CCC2(CCN2Cc2ccc(F)cc2)C1 (centres undefined) registered its INHIBITION at -7.7

GET /value?item= CN(C)C[C@H]1OC[C@@H]2CCN(C(=O)c3ccc[nH]3)C[C@@H]21 &field=INHIBITION returns 29.8

Looking up COCCN1CCC12CCN(C(=O)c1ccsc1)CC2 , I found its INHIBITION recorded as -20.8

INHIBITION in this record for CCCc1nnc(NCCn2nc(C)c(Cl)c2C)o1 : 13.7

Value of measured INHIBITION for the entry Cn1cc(CN2C[C@@H]3CCCO[C@@H]3[C@H](NC(=O)CC3CC3)C2)cn1 : 11.4

The molecule listed as c1cnnc(NCC2CN(CC3CCOCC3)CCO2)c1 (centres undefined) shows INHIBITION equal to -35.7

Form field INHIBITION, entry Cc1cc(C(=O)N2CCC3(CCN3Cc3ccc(F)cc3)C2)no1 (centres undefined) : -6.05

INHIBITION recorded for this molecule, CCOC(=O)CSc1nnc([C@@H](N)C(C)C)o1 , is 2.49

INHIBITION measured on OC(CN1CCC(c2ccn[nH]2)CC1)c1cc(F)ccc1F (centres undefined) = -4.94

Reported INHIBITION for CC(=O)N1CCC(c2nccnc2-c2ccc(F)c(F)c2)CC1 was 26.8

Consider Clc1ccc(OCCNCCn2cccn2)cc1 . Its measured INHIBITION is 9.14
